target system: Aurora kinase A (Homo sapiens, UniProt O14965)
Sequence (O14965 whole entry): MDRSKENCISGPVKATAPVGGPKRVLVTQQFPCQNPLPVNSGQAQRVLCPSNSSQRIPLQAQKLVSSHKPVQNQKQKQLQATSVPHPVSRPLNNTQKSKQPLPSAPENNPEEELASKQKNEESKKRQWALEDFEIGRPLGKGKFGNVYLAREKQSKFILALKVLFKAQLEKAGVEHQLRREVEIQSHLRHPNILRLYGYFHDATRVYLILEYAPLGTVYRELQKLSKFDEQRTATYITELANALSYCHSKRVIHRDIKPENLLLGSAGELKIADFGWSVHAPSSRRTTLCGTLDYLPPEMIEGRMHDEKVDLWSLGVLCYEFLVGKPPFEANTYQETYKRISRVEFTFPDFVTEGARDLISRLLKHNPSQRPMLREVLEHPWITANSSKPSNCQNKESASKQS
assay name: Binding affinity to recombinant full-length N-terminal His-FLAG-GST-tagged AURKA (unknown origin) expressed in baculovirus infected Sf9 insect cells incubated for 1 hr by TR-FRET assay
The molecules listed here are annotated with their Kd.
Please give a number only; it is taken to be in nM.

Using known records, supply Kd for CO[C@@H]1[C@H](N(C)CCOCCOCCOCCNC(=O)CCC2=[N+]3C(=Cc4c(C)cc(C)n4[B-]3(F)F)C=C2)C[C@H]2O[C@]1(C)n1c3ccccc3c3c4c(c5c6ccccc6n2c5c31)C(=O)NC4 51

Using known records, supply Kd for CO[C@@H]1[C@H](NCCOCCOCCOCCNC(=O)CCC2=[N+]3C(=Cc4c(C)cc(C)n4[B-]3(F)F)C=C2)C[C@H]2O[C@]1(C)n1c3ccccc3c3c4c(c5c6ccccc6n2c5c31)C(=O)NC4 45
